Origin of values: the supplement of paper PMC10065799

- Test system: Fer (mouse);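 further: 11-residue human phosphosite peptides and single-mutation variants displayed on the E. coli surface, counted by deep sequencing, each peptide's frequency after selection divided by its frequency in the unselected input library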;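 further: frequency after pTyr selection over input frequency; kinase dosed for 20-30% of maximal phosphorylation in three min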
- TEST_METHOD_NOTES: phosphorylation enrichment, bacterial display (enrichment ratio); higher = better substrate or ligand; peptides without Tyr show the background
Label TRUE for high-side phosphorylation enrichment (at or above 0.6) and FALSE for low-side phosphorylation enrichment (below it).

EFFDGYWGFSV [ITGA2B_Y265_YF] | FALSE
EVESPYEVRDF [GIGYF2_Y1168_H1171R_YF] | TRUE

Hi, just wondering whether LANNEYFFRVC shows phosphorylation enrichment of 0.6 or higher.
FALSE

Reported phosphorylation enrichment at or above 0.6? TKEPKYEGAGS [KIAA1210_Y1615]
FALSE
